Measured values drawn from BigSolDB 2.1 for this set.

Condition: in isopropanol, 303.15 K
Endpoint: solubility (mole fraction)
One number for each entry.

Requested read-out: solubility (mole fraction). Entry: CCN(CC)C(=S)SSC(=S)N(CC)CC 0.00346

====

Condition: in acetonitrile, 313.15 K
Endpoint: solubility (mole fraction)
Give bare numbers.

Requested read-out: solubility (mole fraction). Entry: CCN(CC)C(=S)SSC(=S)N(CC)CC 0.141

====

Condition: in THF, 318.15 K
Endpoint: solubility (mole fraction)

Requested read-out: solubility (mole fraction). Entry: CCN(CC)C(=S)SSC(=S)N(CC)CC 0.228

====

Condition: in acetonitrile, 283.15 K
Endpoint: solubility (mole fraction)
One number for each entry.

Requested read-out: solubility (mole fraction). Entry: CCN(CC)C(=S)SSC(=S)N(CC)CC 0.024
